IC50 values by entry
Target Or System: HER2 (Homo sapiens)
Sequence (P04626 23-1255, species assumed): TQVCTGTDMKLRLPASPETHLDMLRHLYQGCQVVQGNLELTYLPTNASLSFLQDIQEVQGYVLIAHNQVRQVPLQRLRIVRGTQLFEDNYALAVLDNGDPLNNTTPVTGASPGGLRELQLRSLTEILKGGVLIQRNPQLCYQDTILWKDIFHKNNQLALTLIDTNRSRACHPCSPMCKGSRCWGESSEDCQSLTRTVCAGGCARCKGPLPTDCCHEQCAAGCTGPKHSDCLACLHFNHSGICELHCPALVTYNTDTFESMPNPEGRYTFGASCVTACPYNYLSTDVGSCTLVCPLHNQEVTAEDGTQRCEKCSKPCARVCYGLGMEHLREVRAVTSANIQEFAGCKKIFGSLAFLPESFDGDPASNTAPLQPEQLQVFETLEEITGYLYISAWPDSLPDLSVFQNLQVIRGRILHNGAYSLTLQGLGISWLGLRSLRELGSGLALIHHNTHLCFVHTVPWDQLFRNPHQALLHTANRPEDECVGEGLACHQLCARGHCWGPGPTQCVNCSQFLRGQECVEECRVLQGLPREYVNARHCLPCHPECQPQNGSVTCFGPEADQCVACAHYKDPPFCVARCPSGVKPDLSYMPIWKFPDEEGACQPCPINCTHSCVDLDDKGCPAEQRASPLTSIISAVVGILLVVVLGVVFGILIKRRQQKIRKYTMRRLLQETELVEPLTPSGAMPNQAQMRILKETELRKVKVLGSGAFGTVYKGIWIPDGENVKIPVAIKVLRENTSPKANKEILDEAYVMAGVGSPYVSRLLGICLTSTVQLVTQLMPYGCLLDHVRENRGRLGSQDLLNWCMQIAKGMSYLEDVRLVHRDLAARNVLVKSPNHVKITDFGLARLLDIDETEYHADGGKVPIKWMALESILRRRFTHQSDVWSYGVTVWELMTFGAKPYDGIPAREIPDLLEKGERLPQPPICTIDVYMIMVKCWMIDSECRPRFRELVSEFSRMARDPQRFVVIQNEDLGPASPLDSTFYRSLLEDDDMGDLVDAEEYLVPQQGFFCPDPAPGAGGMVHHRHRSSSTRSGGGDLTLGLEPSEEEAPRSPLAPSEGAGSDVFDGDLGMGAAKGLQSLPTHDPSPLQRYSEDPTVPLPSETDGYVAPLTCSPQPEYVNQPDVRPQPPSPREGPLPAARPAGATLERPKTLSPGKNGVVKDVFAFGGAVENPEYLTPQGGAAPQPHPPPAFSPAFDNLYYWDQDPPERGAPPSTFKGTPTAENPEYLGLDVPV
A bare number is not enough; add the unit after it.

Completed entries (count: 3):
Molecule	IC50
Clc1cccc(Nc2cncc(-c3cncc(NCCCc4cccnc4)c3)n2)c1 [Cmd 72]	9.7 µM
Clc1cccc(Nc2cncc(-c3cncc(NCCCn4cncn4)c3)n2)c1 [Cmd 76]	2.24 µM
Clc1cccc(Nc2cncc(-c3cncc(NCCCn4cccn4)c3)n2)c1 [Cmd 75]	3 µM

Next up:
IC50 of Clc1cccc(Nc2cncc(-c3cncc(NCCCN4CCCCC4)c3)n2)c1 [Cmd 73] on HER2 (Homo sapiens)?
7.2 µM

###

Target Or System: CDK1 (cyclin dependent kinase 1) / cyclin B (Homo sapiens)
Construct: purchased New England Biolabs 6020; host or cells: insect cells
Test Summary: CDK1 kinase assay
Assay type: biochemical
Condition Info: Tables 1-3; >10 or >100 = no 50% inhibition at highest dose tested; read-out: CDK IC50
pIC50: −log10 of the molar value.
Result Type: pIC50

Solved entries:
Compound	pIC50
Clc1cccc(Nc2cncc(-c3cncc(NCCCn4cccn4)c3)n2)c1 [Cmd 75]	< 5.00
OCCOCCOCCNc1cncc(-c2cncc(Nc3cccc(Cl)c3)n2)c1 [Cmd 78]	< 5.00
CCOCC(=O)Nc1cncc(-c2cncc(Nc3cccc(Cl)c3)n2)c1 [Cmd 102]	< 5.00
Clc1cccc(Nc2cncc(-c3cncc(NCCCN4CCNCC4)c3)n2)c1 [Cmd 69]	< 5.00
OCCCCNc1cncc(-c2cncc(Nc3cccc(Cl)c3)n2)c1 [Cmd 32]	< 4.00

Can you look up the measured pIC50 of COCCOCCNc1cncc(-c2cncc(Nc3cccc(Cl)c3)n2)c1 [Cmd 85] for me?
< 5.00

# repeat for Nc1ncc(NCCCO)cc1-c1cncc(Nc2cccc(Cl)c2)n1 [Cmd 107]
< 5.00

Repeat with O=C(NCCCO)c1cncc(-c2cncc(Nc3cccc(Cl)c3)n2)c1 [Cmd 39]
4.46

Entry to check: Clc1ccc(Nc2cncc(-c3cncc(NCCCc4ccncc4)c3)n2)cc1 [Cmd 87]
< 5.00

Item: CCN(CC)C(=O)CNc1cncc(-c2cncc(Nc3cccc(Cl)c3)n2)c1 [Cmd 81]
< 5.00

###

# reported log10 IC50; entries follow
Target Or System: VEGF-R (vascular endothelial growth factor receptor-2) (Rattus norvegicus, UniProt O08775)
Construct: polyhistidine (6xHis) (N)
Sequence (O08775 786-1343): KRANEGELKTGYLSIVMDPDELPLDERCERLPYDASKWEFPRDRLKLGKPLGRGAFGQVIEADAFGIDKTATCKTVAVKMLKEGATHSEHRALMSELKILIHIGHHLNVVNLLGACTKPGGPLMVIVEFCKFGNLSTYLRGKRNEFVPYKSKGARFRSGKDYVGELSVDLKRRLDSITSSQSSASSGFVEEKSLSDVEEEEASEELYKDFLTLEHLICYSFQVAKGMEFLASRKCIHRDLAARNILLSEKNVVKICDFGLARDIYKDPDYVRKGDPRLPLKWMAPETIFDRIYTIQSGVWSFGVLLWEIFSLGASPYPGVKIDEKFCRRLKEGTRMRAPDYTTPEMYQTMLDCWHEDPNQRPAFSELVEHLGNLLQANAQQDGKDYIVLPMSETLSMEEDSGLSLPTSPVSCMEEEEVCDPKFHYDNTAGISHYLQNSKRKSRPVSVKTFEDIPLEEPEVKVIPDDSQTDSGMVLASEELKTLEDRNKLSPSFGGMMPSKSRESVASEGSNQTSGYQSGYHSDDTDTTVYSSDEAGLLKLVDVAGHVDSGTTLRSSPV
Test Summary: VEGF-R screening assay (33P FlashPlate kinase assay)
Assay type: biochemical
Condition Info: Tables 1-3; >10 or >100 = no 50% inhibition at highest dose tested; read-out: VEGF-R IC50
All values: log10 IC50 [µM].

Compound	Target Or System	log10 IC50
Clc1cccc(Nc2cncc(-c3cncc(NCCCN4CCOCC4)c3)n2)c1 [Cmd 34]	VEGF-R (vascular endothelial growth factor receptor-2) (Rattus norvegicus, UniProt O08775)	-0.74
OCCCNc1cncc(-c2cncc(Nc3cccc(F)c3)n2)c1 [Cmd 52]	VEGF-R (vascular endothelial growth factor receptor-2) (Rattus norvegicus, UniProt O08775)	-0.77
O=C(Nc1cncc(-c2cncc(Nc3cccc(Cl)c3)n2)c1)N1CCCC1 [Cmd 74]	VEGF-R (vascular endothelial growth factor receptor-2) (Rattus norvegicus, UniProt O08775)	-0.24

Field request: log10 IC50 | item: COCC(=O)Nc1cncc(-c2cncc(Nc3cccc(Cl)c3)n2)c1 [Cmd 41]
-0.44

And what about the compound Nc1cncc(-c2cncc(Nc3cccc(Cl)c3)n2)c1 [Cmd 5] ?
0.06

// same read-out, input: Clc1cccc(Nc2cncc(-c3cncc(NCCCCc4ccncc4)c3)n2)c1 [Cmd 70]
-0.53

Also Clc1cccc(Nc2cncc(-c3cncc(NCCCc4ccccc4)c3)n2)c1 [Cmd 80] ?
0.36

###

Observed IC50 values for FGF-R2 (Homo sapiens) are listed in what follows.
Write down the numeric answer in nM and omit the unit.

Solved cases (5 shown):
Compound	Meas Value
CN(C)CCCNc1cncc(-c2cncc(Nc3cccc(Cl)c3)n2)c1 [Cmd 35]	3070
OCCCCNc1cncc(-c2cncc(Nc3cccc(Cl)c3)n2)c1 [Cmd 32]	2360
OCCCNc1cncc(-c2cncc(Nc3cccc(Cl)c3)n2)c1 [Cmd 4]	207
Clc1cccc(Nc2cncc(-c3cncc(NCCCn4ccnc4)c3)n2)c1 [Cmd 77]	221
O=C(NCCCO)c1cncc(-c2cncc(Nc3cccc(Cl)c3)n2)c1 [Cmd 39]	1800

Query IC50 on FGF-R2 (Homo sapiens) for CN(C)CCNc1cncc(-c2cncc(Nc3cccc(Cl)c3)n2)c1 [Cmd 33]
Sequence (P21802 22-821, species assumed): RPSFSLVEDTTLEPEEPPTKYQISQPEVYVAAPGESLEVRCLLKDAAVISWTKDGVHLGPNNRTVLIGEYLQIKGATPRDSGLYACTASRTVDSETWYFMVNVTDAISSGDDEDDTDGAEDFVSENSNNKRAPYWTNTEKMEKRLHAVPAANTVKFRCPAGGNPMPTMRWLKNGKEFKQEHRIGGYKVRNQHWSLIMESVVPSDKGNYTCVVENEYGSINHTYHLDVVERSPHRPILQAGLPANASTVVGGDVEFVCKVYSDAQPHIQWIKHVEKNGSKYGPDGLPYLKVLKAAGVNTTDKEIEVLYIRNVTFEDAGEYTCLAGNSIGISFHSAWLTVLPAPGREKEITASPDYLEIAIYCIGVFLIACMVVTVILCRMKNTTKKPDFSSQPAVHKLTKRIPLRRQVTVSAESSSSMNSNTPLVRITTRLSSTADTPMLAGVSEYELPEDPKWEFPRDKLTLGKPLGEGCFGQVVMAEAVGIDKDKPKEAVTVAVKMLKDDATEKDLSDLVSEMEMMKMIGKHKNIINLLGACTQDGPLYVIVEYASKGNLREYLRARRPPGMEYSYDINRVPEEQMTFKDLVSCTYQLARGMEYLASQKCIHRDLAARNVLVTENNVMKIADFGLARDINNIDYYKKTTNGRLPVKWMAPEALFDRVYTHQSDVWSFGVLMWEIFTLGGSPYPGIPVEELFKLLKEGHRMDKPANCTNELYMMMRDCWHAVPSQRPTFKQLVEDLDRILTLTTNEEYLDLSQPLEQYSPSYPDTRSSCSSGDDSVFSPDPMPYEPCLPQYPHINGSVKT
1400

# iterate: Clc1cccc(Nc2cncc(-c3cncc(NCCCn4cncn4)c3)n2)c1 [Cmd 76]
153

###

Target Or System: PDGF-R (platelet derived growth factor receptor) (Homo sapiens, UniProt P09619)
Sequence (P09619 554-1106 limits assumed): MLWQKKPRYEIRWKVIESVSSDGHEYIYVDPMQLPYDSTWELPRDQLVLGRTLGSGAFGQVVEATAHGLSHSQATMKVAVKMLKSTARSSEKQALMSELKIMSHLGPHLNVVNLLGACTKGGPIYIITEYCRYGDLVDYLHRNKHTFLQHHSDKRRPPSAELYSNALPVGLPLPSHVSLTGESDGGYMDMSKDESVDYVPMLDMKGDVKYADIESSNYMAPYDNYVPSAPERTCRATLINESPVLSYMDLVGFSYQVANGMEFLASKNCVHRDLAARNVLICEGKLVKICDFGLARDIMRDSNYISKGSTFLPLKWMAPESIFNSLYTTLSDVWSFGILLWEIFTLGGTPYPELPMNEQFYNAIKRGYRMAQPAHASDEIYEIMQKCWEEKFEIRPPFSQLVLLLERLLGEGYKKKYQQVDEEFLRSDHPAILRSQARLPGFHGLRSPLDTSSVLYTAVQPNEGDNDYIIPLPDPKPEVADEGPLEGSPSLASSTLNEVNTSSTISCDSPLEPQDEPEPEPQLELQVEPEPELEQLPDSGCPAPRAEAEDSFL
Recorded pIC50 for the following compounds
Remember the convention: pIC50 equals -log10 of concentration in molar.

Past entries and their recorded results:
Molecule	pIC50
OCCCCNc1cncc(-c2cncc(Nc3cccc(Cl)c3)n2)c1	5.55
Clc1cccc(Nc2cncc(-c3cncc(NCCCc4ccncc4)c3)n2)c1	6.00
Clc1cccc(Nc2cncc(-c3cncc(NCCCc4cccnc4)c3)n2)c1	6.06
CN(C)CCCNc1cncc(-c2cncc(Nc3cccc(Cl)c3)n2)c1	5.60

Moving on to another compound below.
I would be grateful if you could share the reported pIC50 for "O=C(NCCCO)c1cncc(-c2cncc(Nc3cccc(Cl)c3)n2)c1" .
5.55

###

Entries with reported pIC50 on UniProt P68400
Sequence (P68400 whole entry): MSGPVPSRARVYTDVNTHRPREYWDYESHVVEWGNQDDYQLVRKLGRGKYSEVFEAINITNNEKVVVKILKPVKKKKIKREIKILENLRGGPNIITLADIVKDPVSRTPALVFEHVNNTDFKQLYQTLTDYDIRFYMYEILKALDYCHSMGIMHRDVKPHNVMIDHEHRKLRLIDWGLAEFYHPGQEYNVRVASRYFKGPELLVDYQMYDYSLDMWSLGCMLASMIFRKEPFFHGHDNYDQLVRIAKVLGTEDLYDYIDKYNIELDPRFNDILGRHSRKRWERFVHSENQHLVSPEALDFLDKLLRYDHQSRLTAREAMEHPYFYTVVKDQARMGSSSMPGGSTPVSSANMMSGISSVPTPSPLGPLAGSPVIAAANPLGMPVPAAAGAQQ
Sequence (P67870 whole entry partner): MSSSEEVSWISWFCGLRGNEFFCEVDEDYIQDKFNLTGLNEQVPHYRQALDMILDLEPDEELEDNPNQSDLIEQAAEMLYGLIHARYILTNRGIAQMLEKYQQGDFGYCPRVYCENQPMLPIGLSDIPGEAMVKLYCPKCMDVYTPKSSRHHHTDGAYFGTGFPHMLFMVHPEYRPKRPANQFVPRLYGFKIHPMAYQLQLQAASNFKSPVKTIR
// pIC50: -log10(molar conc.)

Compound	pIC50
Clc1cccc(Nc2cncc(-c3cncc(NCCCn4cccn4)c3)n2)c1 [Cmd 75]	5.09

--- query ---
May I ask what pIC50 has been recorded for Clc1cccc(Nc2cncc(-c3cncc(NCCCN4CCCCC4)c3)n2)c1 [Cmd 73] ?
5.20

###

Overview of recorded pIC50 for various molecules
Target Or System: CDK1 (cyclin dependent kinase 1) / cyclin B (Homo sapiens, UniProt P06493)
Construct: purchased New England Biolabs 6020; host or cells: insect cells
Sequence (P06493 whole entry): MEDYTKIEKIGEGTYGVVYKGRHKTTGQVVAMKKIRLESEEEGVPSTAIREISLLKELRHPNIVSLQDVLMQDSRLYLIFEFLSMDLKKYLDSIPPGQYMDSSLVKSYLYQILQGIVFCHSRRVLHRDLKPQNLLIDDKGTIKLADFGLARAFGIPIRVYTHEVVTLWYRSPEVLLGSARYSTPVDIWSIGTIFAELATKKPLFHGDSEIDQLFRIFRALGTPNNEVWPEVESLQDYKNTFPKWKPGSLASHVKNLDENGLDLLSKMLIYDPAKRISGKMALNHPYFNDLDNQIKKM
Sequence (P14635 whole entry partner): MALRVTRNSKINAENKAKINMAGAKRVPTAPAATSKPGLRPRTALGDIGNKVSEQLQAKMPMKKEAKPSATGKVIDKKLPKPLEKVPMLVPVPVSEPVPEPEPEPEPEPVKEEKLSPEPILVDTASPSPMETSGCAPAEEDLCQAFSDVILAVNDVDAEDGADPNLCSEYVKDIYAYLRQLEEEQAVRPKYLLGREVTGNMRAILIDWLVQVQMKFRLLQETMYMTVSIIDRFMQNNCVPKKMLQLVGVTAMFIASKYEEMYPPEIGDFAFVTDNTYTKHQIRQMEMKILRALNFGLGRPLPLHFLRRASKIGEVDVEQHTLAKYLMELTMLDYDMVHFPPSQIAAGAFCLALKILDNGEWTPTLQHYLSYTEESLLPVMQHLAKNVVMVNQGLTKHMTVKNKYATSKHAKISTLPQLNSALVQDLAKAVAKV
Test Summary: CDK1 kinase assay
Format: biochemical
Condition Info: Table 4 kinase selectivity; 10 = approximate value; read-out: IC50, Assay 2 CDK1
pIC50: −log10 of the molar value.

Some molecules with known pIC50 results, for comparison:
Molecule	Target Or System	Meas Value
CCOC(=O)CCCNc1cncc(-c2cncc(Nc3cccc(Cl)c3)n2)c1	CDK1 (cyclin dependent kinase 1) / cyclin B (Homo sapiens, UniProt P06493)	5.69
OCCCNc1cncc(-c2cncc(Nc3cccc(Cl)c3)n2)c1	CDK1 (cyclin dependent kinase 1) / cyclin B (Homo sapiens, UniProt P06493)	< 5.00
O=C(NCCCO)c1cncc(-c2cncc(Nc3cccc(Cl)c3)n2)c1	CDK1 (cyclin dependent kinase 1) / cyclin B (Homo sapiens, UniProt P06493)	4.46
Clc1cccc(Nc2cncc(-c3cncc(NCCCc4ccncc4)c3)n2)c1	CDK1 (cyclin dependent kinase 1) / cyclin B (Homo sapiens, UniProt P06493)	< 4.00

Could you tell me which pIC50 is on file for "CN(C)CCCNc1cncc(-c2cncc(Nc3cccc(Cl)c3)n2)c1" ?
< 5.00

What do you have for "Clc1cccc(Nc2cncc(-c3cncc(NCCCN4CCCCC4)c3)n2)c1" ?
5.21

Cool, now "COCCOCCNc1cncc(-c2cncc(Nc3cccc(Cl)c3)n2)c1"
< 5.00

Try this molecule too: "Clc1cccc(Nc2cncc(-c3cncc(NCCCn4ccnc4)c3)n2)c1"
~5.00

Another molecule: "Clc1cccc(Nc2cncc(-c3cncc(NCCCc4cccnc4)c3)n2)c1"
< 4.00

###

Listing of recorded IC50 by entry.
Target Or System: VEGF-R (vascular endothelial growth factor receptor-2) (Rattus norvegicus)
Construct: polyhistidine (6xHis) (N)
Test Summary: VEGF-R screening assay (33P FlashPlate kinase assay)
Assay type: biochemical
Condition Info: Tables 1-3; >10 or >100 = no 50% inhibition at highest dose tested; read-out: VEGF-R IC50
Only the number, expressed in nM, is required.

Check out these entries, answers already filled in.
Molecule	IC50 / nM
Clc1cccc(Nc2cncc(-c3cncc(NCCCc4cccnc4)c3)n2)c1 [Cmd 72]	89
Clc1cccc(Nc2cncc(-c3cncc(NCCCn4cncn4)c3)n2)c1 [Cmd 76]	52
CN(C)CCNc1cncc(-c2cncc(Nc3cccc(Cl)c3)n2)c1 [Cmd 33]	70

Look at this molecule and give its reported IC50. OCCOCCOCCNc1cncc(-c2cncc(Nc3cccc(Cl)c3)n2)c1 [Cmd 78]
282

// same read-out, input: Clc1cccc(Nc2cncc(-c3cncc(NCCCN4CCCCC4)c3)n2)c1 [Cmd 73]
105

Follow-up entry: CN(C)CCNC(=O)c1cncc(-c2cncc(Nc3cccc(Cl)c3)n2)c1 [Cmd 38]
4300

Please give the result for O=C(CO)Nc1cncc(-c2cncc(Nc3cccc(Cl)c3)n2)c1 [Cmd 105] too.
410

What do you get for Clc1ccc(Nc2cncc(-c3cncc(NCCCc4ccncc4)c3)n2)cc1Cl [Cmd 89] ?
268

Same thing, different molecule: COCCOCC(=O)Nc1cncc(-c2cncc(Nc3cccc(Cl)c3)n2)c1 [Cmd 98]
990

Entry to check: CCOC(=O)CCCNc1cncc(-c2cncc(Nc3cccc(Cl)c3)n2)c1 [Cmd 84]
125
